Molecular target: UniProt:Q92831
Assay: KAT2B degradation, Western Blot (Jess), NCI-H1048 cells
Assay type: cell-based
Parameters: degrader, Western blot (Jess)
Settings: NCI-H1048 cells, KAT2B, 24 h, Western Blot, vs DMSO; read-out: KAT2B NCI-H1048 DC50
measured-parameter: DC50

[[record]]
compound = "CN1C[C@H](Nc2cnn(C)c(=O)c2Br)C[C@H](c2ccc(CN3CCC(c4cccc(C5CCC(=O)NC5=O)c4)C(F)(F)C3)cc2)C1 (stereo partly drawn)"
target = "UniProt:Q92831"
measured_parameter = "DC50"
result = "> 30 nM"

[[record]]
compound = "Cc1cc(N2CCN(C3CN(C(=O)c4ccc([C@H]5C[C@@H](Nc6cnn(C)c(=O)c6Br)CN(C)C5)cc4)C3)CC2)ccc1C1CCC(=O)NC1=O (stereo partly drawn)"
target = "UniProt:Q92831"
measured_parameter = "DC50"
result = "> 30 nM"

[[record]]
compound = "CN1C[C@H](Nc2cnn(C)c(=O)c2Br)C[C@H](c2ccc(C(=O)N3CCC4(CC3)CCN(c3ccc(N5CCC(=O)NC5=O)c(F)c3)CC4)cc2)C1"
target = "UniProt:Q92831"
measured_parameter = "DC50"
result = "< 1 nM"

[[record]]
compound = "CN1C[C@H](Nc2cnn(C)c(=O)c2Br)C[C@H](c2ccc(C(=O)N3CCC(CN4CCN(c5ccc6c(c5)CN(C5CCC(=O)NC5=O)C6=O)CC4)CC3)cc2)C1 (stereo partly drawn)"
target = "UniProt:Q92831"
measured_parameter = "DC50"
result = "< 1 nM"

[[record]]
compound = "Cc1c(N[C@@H]2C[C@H](c3ccc(CN4CCC(c5cccc(C6CCC(=O)NC6=O)c5)C(F)(F)C4)cc3)CN(C)C2)cnn(C)c1=O (stereo partly drawn)"
target = "UniProt:Q92831"
measured_parameter = "DC50"
result = "> 30 nM"

[[record]]
compound = "CN1C[C@H](Nc2cnn(C)c(=O)c2Cl)C[C@H](c2ccc(C(=O)N3CCC4(CC3)CCN(c3ccc(C(=O)NC5CCC(=O)NC5=O)c(F)c3)CC4)cc2)C1 (stereo partly drawn)"
target = "UniProt:Q92831"
measured_parameter = "DC50"
result = "1 to 30 nM"

[[record]]
compound = "Cc1c(N[C@@H]2C[C@H](c3ccc(C(=O)N4CCC5(CC4)CCN(c4ccc6c(C7CCC(=O)NC7=O)nccc6c4)CC5)cc3)CN(C)C2)cnn(C)c1=O (stereo partly drawn)"
target = "UniProt:Q92831"
measured_parameter = "DC50"
result = "1 to 30 nM"

[[record]]
compound = "CN1C[C@H](Nc2cnn(C)c(=O)c2Br)C[C@H](c2ccc(C(=O)N3CCC4(CC3)CCN(c3cnn(C5CCC(=O)NC5=O)c3)CC4)cc2)C1 (stereo partly drawn)"
target = "UniProt:Q92831"
measured_parameter = "DC50"
result = "< 1 nM"

[[record]]
compound = "CN1C[C@H](Nc2cnn(C)c(=O)c2Br)C[C@H](c2ccc(CN3CCC(c4ccc5c(c4)C(=O)N(C4CCC(=O)NC4=O)C5=O)C(F)(F)C3)cc2)C1 (stereo partly drawn)"
target = "UniProt:Q92831"
measured_parameter = "DC50"
result = "< 1 nM"

[[record]]
compound = "CN1C[C@H](Nc2cnn(C)c(=O)c2Cl)C[C@H](c2ccc(C(=O)N3CC(C#Cc4ccc(C5CCC(=O)NC5=O)cc4)C3)cc2)C1 (stereo partly drawn)"
target = "UniProt:Q92831"
measured_parameter = "DC50"
result = "> 30 nM"

[[record]]
compound = "COc1cc(N2CCC3(CCN(C(=O)c4ccc([C@H]5C[C@@H](Nc6cnn(C)c(=O)c6Cl)CN(C)C5)cc4)CC3)CC2)c(F)cc1C1CCC(=O)NC1=O (stereo partly drawn)"
target = "UniProt:Q92831"
measured_parameter = "DC50"
result = "> 30 nM"

[[record]]
compound = "C[C@H](Nc1nn(C)c(=O)c2ncccc12)[C@H](c1ccc(C(=O)N2CCC3(CC2)CCN(c2ccc(C4CCC(=O)NC4=O)cc2)CC3)cc1)N(C)C (stereo partly drawn)"
target = "UniProt:Q92831"
measured_parameter = "DC50"
result = "> 30 nM"

[[record]]
compound = "Cc1cc(N2CCC3(CCN(C(=O)c4ccc([C@H]5C[C@@H](Nc6cnn(C)c(=O)c6Cl)CN(C)C5)cc4)CC3)CC2)ncc1C1CCC(=O)NC1=O (stereo partly drawn)"
target = "UniProt:Q92831"
measured_parameter = "DC50"
result = "< 1 nM"

[[record]]
compound = "CN1C[C@H](Nc2cnn(C)c(=O)c2Cl)C[C@H](c2ccc(COc3ccc4c(c3)C(=O)N(C3CCC(=O)NC3=O)C4=O)cc2)C1 (stereo partly drawn)"
target = "UniProt:Q92831"
measured_parameter = "DC50"
result = "1 to 30 nM"

[[record]]
compound = "Cc1cc(N2CCC3(CCN(C(=O)c4ccc([C@H]5C[C@@H](Nc6cnn(C)c(=O)c6Br)CN(C)C5)cc4)CC3)CC2)ncc1C1CCC(=O)NC1=O (stereo partly drawn)"
target = "UniProt:Q92831"
measured_parameter = "DC50"
result = "< 1 nM"

[[record]]
compound = "CN1C[C@H](Nc2cnn(C)c(=O)c2Br)C[C@H](c2ccc(C(=O)N3CCC4(CC3)CCN(c3ccc5c(N6CCC(=O)NC6=O)nccc5c3)CC4)cc2)C1"
target = "UniProt:Q92831"
measured_parameter = "DC50"
result = "> 30 nM"

[[record]]
compound = "COc1cc(N2CCC3(CCN(C(=O)c4ccc([C@H]5C[C@@H](Nc6cnn(C)c(=O)c6Br)CN(C)C5)cc4)CC3)CC2)ccc1C1CCC(=O)NC1=O (stereo partly drawn) [Compound 318]"
target = "UniProt:Q92831"
measured_parameter = "DC50"
result = "1 to 30 nM"

[[record]]
compound = "CN1C[C@H](Nc2cnn(C)c(=O)c2Cl)C[C@H](c2ccc(C(=O)N3CCC4(CC3)CCN(c3ccc(C5CCC(=O)NC5=O)cc3OC(F)(F)F)CC4)cc2)C1 (stereo partly drawn)"
target = "UniProt:Q92831"
measured_parameter = "DC50"
result = "1 to 30 nM"

[[record]]
compound = "CN1C[C@H](Nc2cnn(C)c(=O)c2Br)C[C@H](c2ccc(C(=O)N3CCC4(CC3)CCN(c3ccc5nnn(C6CCC(=O)NC6=O)c5c3)CC4)cc2)C1 (stereo partly drawn)"
target = "UniProt:Q92831"
measured_parameter = "DC50"
result = "> 30 nM"

[[record]]
compound = "Cc1cc(N2CCC3(CCN(C(=O)c4ccc([C@H]5C[C@@H](Nc6cnn(C)c(=O)c6Br)CN(C)C5)cc4)CC3)CC2)cnc1C1CCC(=O)NC1=O (stereo partly drawn)"
target = "UniProt:Q92831"
measured_parameter = "DC50"
result = "< 1 nM"

[[record]]
compound = "CN1C[C@H](Nc2cnn(C)c(=O)c2Br)C[C@H](c2ccc(CN3CCN(C4CCC(N5CCC(=O)NC5=O)CC4)CC3)cc2)C1 (stereo partly drawn)"
target = "UniProt:Q92831"
measured_parameter = "DC50"
result = "> 30 nM"


---

Target: KAT2B (Homo sapiens)
Sequence (Q92831 whole entry): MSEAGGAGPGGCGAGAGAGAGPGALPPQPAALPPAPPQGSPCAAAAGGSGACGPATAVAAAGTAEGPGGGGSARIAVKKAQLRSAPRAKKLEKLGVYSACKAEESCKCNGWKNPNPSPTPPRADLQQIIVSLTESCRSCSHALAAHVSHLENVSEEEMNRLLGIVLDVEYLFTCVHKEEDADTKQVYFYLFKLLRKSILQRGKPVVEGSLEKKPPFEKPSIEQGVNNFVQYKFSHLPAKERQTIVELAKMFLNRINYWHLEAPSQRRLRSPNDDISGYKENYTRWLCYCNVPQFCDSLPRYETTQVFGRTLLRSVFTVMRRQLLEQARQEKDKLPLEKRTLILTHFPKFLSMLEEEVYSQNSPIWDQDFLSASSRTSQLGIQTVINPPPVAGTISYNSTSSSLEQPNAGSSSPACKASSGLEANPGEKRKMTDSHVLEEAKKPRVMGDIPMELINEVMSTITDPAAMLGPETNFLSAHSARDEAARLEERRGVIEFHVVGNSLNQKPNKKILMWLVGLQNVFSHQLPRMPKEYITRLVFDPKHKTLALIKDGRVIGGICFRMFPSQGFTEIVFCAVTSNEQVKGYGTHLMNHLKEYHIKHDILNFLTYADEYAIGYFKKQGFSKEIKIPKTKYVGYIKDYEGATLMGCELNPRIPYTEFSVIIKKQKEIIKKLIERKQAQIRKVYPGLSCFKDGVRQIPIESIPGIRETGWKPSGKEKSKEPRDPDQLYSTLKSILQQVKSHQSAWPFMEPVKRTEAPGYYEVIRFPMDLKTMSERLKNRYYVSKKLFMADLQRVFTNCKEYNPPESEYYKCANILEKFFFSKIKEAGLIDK
Experiment: KAT2B degradation, Western Blot (Jess), NCI-H1048 cells
Format: cell-based
Set-up: degrader, Western blot (Jess)
Conditions: NCI-H1048 cells, KAT2B, 24 h, Western Blot, vs DMSO; read-out: KAT2B NCI-H1048 DC50
measured-parameter: DC50

[[record]]
compound = "Cc1cc(N2CC(N3CCN(C(=O)c4ccc([C@H]5C[C@@H](Nc6cnn(C)c(=O)c6Cl)CN(C)C5)cc4)CC3)C2)ccc1C1CCC(=O)NC1=O (stereo partly drawn)"
result = "0.001 to 0.03 µM"

[[record]]
compound = "CN1C[C@H](Nc2cnn(C)c(=O)c2Cl)C[C@H](c2ccc(CN3CCN(c4ccnc(C5CCC(=O)NC5=O)c4)CC3)cc2)C1 (stereo partly drawn)"
result = "> 0.03 µM"

[[record]]
compound = "COc1cc(N2CCC3(CCN(C(=O)c4ccc([C@H]5C[C@@H](Nc6cnn(C)c(=O)c6Br)CN(C)C5)cc4)CC3)CC2)ccc1C1CCC(=O)NC1=O (stereo partly drawn) [Compound 263]"
result = "< 0.001 µM"

[[record]]
compound = "CN1C[C@H](Nc2nc3cc[nH]c3c(=O)n2C)C[C@H](c2ccc(C(=O)N3CCC4(CC3)CCN(c3ccc(C5CCC(=O)NC5=O)cc3)CC4)cc2)C1 (stereo partly drawn)"
result = "< 0.001 µM"

[[record]]
compound = "CN1C[C@H](Nc2cnn(C)c(=O)c2Cl)C[C@H](c2ccc(C(=O)N3CCC4(CC3)CCN(c3ccc(C5CCC(=O)NC5=O)c(C(F)(F)F)c3)CC4)cc2)C1 (stereo partly drawn)"
result = "> 0.03 µM"

[[record]]
compound = "Cc1c(N[C@@H]2C[C@H](c3ccc(CN4CCN(c5ccc(F)c(C6CCC(=O)NC6=O)c5)CC4)cc3)CN(C)C2)cnn(C)c1=O (stereo partly drawn)"
result = "0.001 to 0.03 µM"

[[record]]
compound = "CN1C[C@H](Nc2cnn(C)c(=O)c2Cl)C[C@H](c2ccc(C(=O)N3CCC4(CCC(c5ccc(C6CCC(=O)NC6=O)cn5)CC4)CC3)cc2)C1 (stereo partly drawn)"
result = "< 0.001 µM"

[[record]]
compound = "Cc1c(N[C@@H]2C[C@H](c3ccc(COc4ccc5c(c4)C(=O)N(C4CCC(=O)NC4=O)C5=O)cc3)CN(C)C2)cnn(C)c1=O (stereo partly drawn)"
result = "> 0.03 µM"

[[record]]
compound = "C[C@H](Nc1nn(C)c(=O)c2ccccc12)[C@H](c1ccc(C(=O)N2CCC3(CC2)CCN(c2ccc(C4CCC(=O)NC4=O)cc2)CC3)cc1)N(C)C (stereo partly drawn)"
result = "> 0.03 µM"

